meta.source: ChEMBL document CHEMBL3797154

- Tested on: Mycolicibacterium aurum
- Assay overview: Inhibition of multidrug resistance efflux pump in Mycobacterium aurum ATCC 23366 assessed as inhibition of ethidium bromide efflux by measuring relative fluorescence units for ethidium bromide accumulation at 1/4 times MIC incubated for 60 mins by fluorimetric assay
Readout label: Activity (RFU)
Record the value in RFU, omitting the unit from your answer.

Use the examples below as a reference point.
Cc1cc(CNCc2ccccc2)c(C)n1-c1ccc(F)cc1	1
Cc1cc(CN2CCN(C3C4CC5CC(C4)CC3C5)CC2)c(C)n1-c1ccccc1F (stereo unspecified)	1
Cc1cc(CNCc2ccc(F)cc2)c(C)n1-c1ccc(Cl)cc1	1
Cc1c(CN2CCN(c3ccccc3)CC2)c(CN2CCN(c3ccccc3)CC2)c(C)n1-c1ccc(Cl)cc1	2
Cc1c(CNCc2ccccc2)cc(-c2ccc(Cl)cc2)n1-c1ccc(Cl)cc1	1

Incoming: Which Activity reading was recorded for the molecule Cc1cc(CN2CCN(C34CC5CC(CC(C5)C3)C4)CC2)c(C)n1-c1ccc(Cl)cc1 ?
Outgoing: 4

Incoming: For the molecule Cc1cccc(-n2c(C)cc(CN3CCN(C4C5CC6CC(C5)CC4C6)CC3)c2C)c1 (stereo unspecified) , what Activity is on record?
Outgoing: 2

Incoming: Endpoint output: Activity of CC(C)=CCC/C(C)=C/CNCCNC1C2CC3CC(C2)CC1C3 (stereo unspecified) . Value?
Outgoing: 2

Incoming: I'd like to know its Activity. The molecule in question is Cc1ccc(CNCc2cc(C)n(-c3ccc(Cl)cc3)c2C)cc1
Outgoing: 2

Incoming: Any idea what its Activity is? The molecule is Cc1cc(CN2CCN(c3ccccc3)CC2)c(C)n1-c1ccc(Cl)cc1
Outgoing: 1

Incoming: Can you look up the measured Activity of Cc1cc(/C=N\OCc2ccccc2)c(C)n1-c1ccc(Cl)cc1 for me?
Outgoing: 1

Incoming: Item under review: Cc1c(CN2CCN(C34CC5CC(CC(C5)C3)C4)CC2)cc(-c2ccc(Cl)cc2)n1-c1ccc(Cl)cc1 . Reported Activity?
Outgoing: 3

Incoming: Entry Cc1cc(CNC2C3CC4CC(C3)CC2C4)c(C)n1-c1ccc(Cl)cc1 (stereo unspecified) has what Activity?
Outgoing: 1

Incoming: Item Cc1cc(CNOCc2ccccc2)c(C)n1-c1ccc(Cl)cc1 has what recorded Activity?
Outgoing: 2
